Where these numbers come from: the RNAGym collection of RNA variant scans (doi:10.7554/elife.80360)

B1: Twister Ribozyme (parent)
chain: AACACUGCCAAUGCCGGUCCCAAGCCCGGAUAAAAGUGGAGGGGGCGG

Variants of: B1
Assay: self-cleavage, relative activity (ratio to wild type); higher = more cleavage; co-transcriptional
Field: class. Source value: self-cleavage. Ranges: lower bin (below 0.09), middle bin (0.09 to below 0.5), upper bin (0.5 or more)

AACACUGCCAAUGCGGGUCCCAAGCCAGGAUAAAAGUGGAGGGGGCGG = middle bin

From here, focus on the item given below.
Query: Category of `AACACUCCCUAUGCCGGUCCCAAGCCCGGAUAAAAGUGGAGGGGGCGG` :
Reply: lower bin
